system tested: MMP-16 (Homo sapiens, UniProt P51512)
Sequence (P51512 120-607): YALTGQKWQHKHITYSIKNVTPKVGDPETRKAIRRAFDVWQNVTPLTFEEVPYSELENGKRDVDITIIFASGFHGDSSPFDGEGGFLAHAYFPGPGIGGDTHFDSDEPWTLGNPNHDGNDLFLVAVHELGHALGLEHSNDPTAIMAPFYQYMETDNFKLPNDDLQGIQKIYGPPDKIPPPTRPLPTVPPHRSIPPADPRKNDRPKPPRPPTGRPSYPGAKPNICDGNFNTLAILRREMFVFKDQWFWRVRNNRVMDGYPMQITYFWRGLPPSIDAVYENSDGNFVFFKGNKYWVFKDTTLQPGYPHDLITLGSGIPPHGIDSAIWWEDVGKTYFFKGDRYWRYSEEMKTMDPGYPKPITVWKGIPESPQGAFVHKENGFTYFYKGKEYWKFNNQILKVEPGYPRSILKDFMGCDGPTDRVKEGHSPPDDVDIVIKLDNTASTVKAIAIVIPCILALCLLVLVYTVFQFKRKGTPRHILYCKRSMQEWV
protocol details: Cross-reactivity of Fabs and IgGs with MMP-16 (Example 8)
Assay type: biochemical
Set-up: key: X: Does not inhibit MMP-16 at [I] = 100 nM level
run conditions: Fab 100 nM; 5 nM MMP16; 30 minutes at 30° C.; 10 μM substrate
measured parameter: MMP-16 (cross-reactivity, class symbol)

Name the reported MMP-16 (cross-reactivity, class symbol) value associated with the molecule M0031-C02: human antibody (Fab, IgG) that binds and inhibits MMP-14; HC SEQ ID NO: 144, LC SEQ ID NO: 145 (antibody, V domains shown, Synthetically generated peptide) VH: EVQLLESGGGLVQPGGSLRLSCAASGFTFSPYPMGWVRQAPGKGLEWVSSIVSSGGLTLYADSVKGRFTISRDNSKNTLYLQMNSLRAEDTAVYYCARGGRLYDILTGQGAPFDYWGQGTLVTVSS VL: QDIQMTQSPLSLPVTPGEPASISCRSSQSLLHSNGYYYLDWYLQKPGQSPQLLIYLGSYRASGVPDRFSGSGSGTDFTLKISSVEAEDVGVYYCMQALQTPLTFGGGTRVDIK
X

Cited source: patent US8106168B2
